The reader will find reported GI50 values listed item by item below.
# System: LOX IMVI melanoma
# assay overview: NCI tumour cell line growth inhibition, 48 h

See these solved cases before continuing.
INSERT INTO assay_data (chem_smiles, measured) VALUES
  ('Cn1cc(C2=C(c3cn(C)c4ccccc34)C(=O)NC2=O)c2ccccc21', '1.8 µM'),
  ('COc1cc(C(=O)Nc2cc(OC)c3ccn(C)c3c2)cc2c1C[C@]1(C)CC[C@@H](O)C(C)(C)[C@H]1O2', '1.01 µM'),
  ('Clc1ccc(OCc2nnc3n2N=C(c2ccc(Cl)cc2Cl)CS3)cc1', '16.2 µM'),
  ('O=C(Nc1ccccc1)c1cc(S(=O)(=O)Nc2nc3ccccc3o2)c(SCc2ccccc2)cc1Cl', '20 µM'),
  ('COc1ccc(/C=C2\C=C(c3ccccc3)N(CCc3ccccc3)C2=O)cc1OC', '5.94 µM');

### Prompt Test system LOX IMVI melanoma; read-out GI50; what value for "COc1cc(/C=C2\C[C@H]3[C@@H]4CC=C5C[C@@H](O)CC[C@]5(C)[C@H]4CC[C@]3(C)[C@H]2O)ccc1OCCCn1ccnc1" ?
### Response 0.988 µM

### Prompt Okay, and "Oc1cc2ccccc2c(-c2c(O)c(O)cc3ccccc23)c1O" ?
### Response 0.939 µM
